Assay: in vitro
Conditions: rat, gh3-tre-luc cells, AC50 (uM) modified / 1000, Tox21_110001=Tox21_301424; viability, 1 nM T3 present, 24 h
Measured Quantity: CC50 at 24 h

# input Can you look up the measured CC50 at 24 h of CNC(=O)Oc1cc(C)cc(C(C)C)c1 [Promecarb] for me?
# output > 90 µM

====

Test system: GH3-TRE-Luc cell line
Conditions: read-out: AC50 (uM) modified / 1000; Tox21_110001=Tox21_303019; viability, 1 nM T3 present, 24 h
Measured Quantity: CC50 (µM)
Note: unit µM is implicit; provide only the numeric part.

# input API: value(readout= CC50, system= GH3-TRE-Luc cell line, query= O=S(=O)(O)c1cc(S(=O)(=O)O)c2c(N=Nc3ccccc3)c(O)ccc2c1 [C.I. Acid Orange 10] )
# output 48.6

====

Assay: in vitro
Settings: rat, gh3-tre-luc cells, AC50 (uM) modified / 1000, Tox21_110001=Tox21_301050; viability, 1 nM T3 present, 24 h
Measured Quantity: CC50 at 24 h (µM)
Note: unit µM is implicit; provide only the numeric part.

# input Can you look up the measured CC50 at 24 h of C[C@H]1[C@H](c2ccc(Cl)cc2)SC(=O)N1C(=O)NC1CCCCC1 [Hexythiazox] for me?
# output 67.8

====

Experiment: in vitro
Conditions: rat, gh3-tre-luc cells, AC50 (uM) modified / 1000, Tox21_110001=Tox21_200649; viability, 1 nM T3 present, 24 h
Measured Quantity: CC50 at 24 h

# input Can you look up the measured CC50 at 24 h of CNC(=O)Oc1cc(C)c(N(C)C)c(C)c1 [Mexacarbate] for me?
# output > 90 µM

====

Experiment: in vitro
Settings: rat, gh3-tre-luc cells, AC50 (uM) modified / 1000, Tox21_110001=Tox21_110539; viability, 1 nM T3 present, 24 h
Measured Quantity: CC50 at 24 h

# input Can you look up the measured CC50 at 24 h of O=P1(NCCCl)OCCCN1CCCl (stereo not shown) [Ifosfamide] for me?
# output > 20 µM

====

Tested on: GH3-TRE-Luc cell line
Conditions: read-out: AC50 (uM) modified / 1000; Tox21_110001=Tox21_111422; viability, 1 nM T3 present, 24 h
Measured Quantity: CC50
Please make sure the unit comes right after the number.

# input Can you look up the measured CC50 of "O=C(OC[C@H]1O[C@@H](OC(=O)c2cc(O)c(O)c(OC(=O)c3cc(O)c(O)c(O)c3)c2)[C@H](OC(=O)c2cc(O)c(O)c(OC(=O)c3cc(O)c(O)c(O)c3)c2)[C@@H](OC(=O)c2cc(O)c(O)c(OC(=O)c3cc(O)c(O)c(O)c3)c2)[C@@H]1OC(=O)c1cc(O)c(O)c(OC(=O)c2cc(O)c(O)c(O)c2)c1)c1cc(O)c(O)c(OC(=O)c2cc(O)c(O)c(O)c2)c1" for me?
# output 3.05 µM

====

System: GH3-TRE-Luc cell line
Details: read-out: AC50 (uM) modified / 1000; Tox21_110001=Tox21_302788; viability, 1 nM T3 present, 24 h
Measured Quantity: CC50 (µM)
Note: unit µM is implicit; provide only the numeric part.

# input Can you look up the measured CC50 of "Nc1cc([N+](=O)[O-])ccc1O" for me?
# output 48.2

====

Experiment: in vitro
Details: rat, gh3-tre-luc cells, AC50 (uM) modified / 1000, Tox21_110001=Tox21_111175; viability, 1 nM T3 present, 24 h
Measured Quantity: CC50 at 24 h

# input Can you look up the measured CC50 at 24 h of CCOC(=O)CC(SP(=S)(OC)OC)C(=O)OCC (stereo not shown) for me?
# output > 50 µM

====

Experiment: in vitro
Settings: rat, gh3-tre-luc cells, AC50 (uM) modified / 1000, Tox21_110001=Tox21_203002; viability, 1 nM T3 present, 24 h
Measured Quantity: CC50 at 24 h

# input Can you look up the measured CC50 at 24 h of NC(=S)Nc1cccc2ccccc12 [1-(1-Naphthyl)-2-thiourea] for me?
# output > 5 µM

====

Test: in vitro
Conditions: rat, gh3-tre-luc cells, AC50 (uM) modified / 1000, Tox21_110001=Tox21_111092; viability, 1 nM T3 present, 24 h
Measured Quantity: CC50 at 24 h

# input Can you look up the measured CC50 at 24 h of O=C(O)COc1ccccc1 [Phenoxyacetic acid] for me?
# output > 50 µM

====

Test: in vitro
Conditions: rat, gh3-tre-luc cells, AC50 (uM) modified / 1000, Tox21_110001=Tox21_112294; viability, 1 nM T3 present, 24 h
Measured Quantity: CC50 at 24 h

# input Can you look up the measured CC50 at 24 h of C#CC(C)(O)CC (stereo not shown) for me?
# output > 50 µM

====

System: GH3-TRE-Luc cell line
Conditions: read-out: AC50 (uM) modified / 1000; Tox21_110001=Tox21_110659; viability, 1 nM T3 present, 24 h
Measured Quantity: CC50 (µM)
Note: unit µM is implicit; provide only the numeric part.

# input Can you look up the measured CC50 of "CCCSc1ccc2nc(NC(=O)OC)[nH]c2c1" for me?
# output 0.271

====

Assay: in vitro
Settings: rat, gh3-tre-luc cells, AC50 (uM) modified / 1000
Listing: CC50 at 24 h of selected molecules

Study these solved cases before continuing.
Molecule | Result
COCCCC/C(=N\OCCN)c1ccc(C(F)(F)F)cc1 [Fluvoxamine] | 15 µM
O=C(/C=C/c1ccc(O)c(O)c1)O[C@@H](C(=O)O)[C@@H](OC(=O)/C=C/c1ccc(O)c(O)c1)C(=O)O [L-Cichoric acid] | > 90 µM

# input Can you look up the measured CC50 at 24 h of CC1(C)[C@H](/C=C(\Cl)C(F)(F)F)[C@@H]1C(=O)O[C@@H](C#N)c1cccc(Oc2ccccc2)c1 [?-Cyhalothrin] for me?
# output > 80 µM

# input Can you look up the measured CC50 at 24 h of C=C1/C(=C\C=C2/CCC[C@]3(C)[C@@H]([C@H](C)/C=C/[C@H](C)C(C)C)CC[C@@H]23)C[C@@H](O)C[C@@H]1O [1-alpha-Hydroxyergocalciferol] for me?
# output 37.5 µM

# input Can you look up the measured CC50 at 24 h of CC(=O)CC(=O)OC(C)(C)C [tert-Butyl 3-oxobutanoate] for me?
# output > 90 µM

====

Test: in vitro
Conditions: rat, gh3-tre-luc cells, AC50 (uM) modified / 1000, Tox21_110001=Tox21_200294; viability, 1 nM T3 present, 24 h
Measured Quantity: CC50 at 24 h

# input Can you look up the measured CC50 at 24 h of CCCC(=O)Cl [Butyryl chloride] for me?
# output > 90 µM

====

Test system: GH3-TRE-Luc cell line
Conditions: read-out: AC50 (uM) modified / 1000; Tox21_110001=Tox21_300307; viability, 1 nM T3 present, 24 h
Measured Quantity: CC50 (µM)
Note: unit µM is implicit; provide only the numeric part.

# input API: value(readout= CC50, system= GH3-TRE-Luc cell line, query= "CC(=O)[C@H]1CC[C@H]2[C@@H]3CCC4=CC(=O)CC[C@]4(C)[C@H]3CC[C@]12C" )
# output 81.7

====

Assay: in vitro
Conditions: rat, gh3-tre-luc cells, AC50 (uM) modified / 1000, Tox21_110001=Tox21_201464; viability, 1 nM T3 present, 24 h
Measured Quantity: CC50 at 24 h

# input Can you look up the measured CC50 at 24 h of "Cc1ccc([N+](=O)[O-])cc1" for me?
# output > 90 µM

====

Tested on: GH3-TRE-Luc cell line
Conditions: read-out: AC50 (uM) modified / 1000; Tox21_110001=Tox21_113232; viability, 1 nM T3 present, 24 h
Measured Quantity: CC50 (µM)
Note: unit µM is implicit; provide only the numeric part.

# input Can you look up the measured CC50 of CN(C)CCOc1ccccc1Cc1ccccc1 [Phentoloxamine PAS] for me?
# output 25.5

====

Assay: in vitro
Conditions: rat, gh3-tre-luc cells, AC50 (uM) modified / 1000, Tox21_110001=Tox21_200657; viability, 1 nM T3 present, 24 h
Measured Quantity: CC50 at 24 h

# input Can you look up the measured CC50 at 24 h of "O=C(O)CBr" for me?
# output > 90 µM

====

Test: in vitro
Details: rat, gh3-tre-luc cells, AC50 (uM) modified / 1000
Structures can show the parent of a compound that is named as a salt.
Listing: CC50 at 24 h of selected compounds

Study these solved cases before continuing.
Compound | Result
Cc1cccc(OCCOc2cccc(C)c2)c1 | > 100 µM
CC(=O)CC(=O)c1ccccc1 | > 90 µM
Cc1ccccc1CCO | > 90 µM
Nc1ccc(C(=O)Oc2ccccc2)c(O)c1 [Phenyl 4-aminosalicylate] | > 50 µM
O=C(CCCN1CC=C(n2c(=O)[nH]c3ccccc32)CC1)c1ccc(F)cc1 | > 50 µM
CC(C)CO | > 90 µM
C(=C/c1ccccc1)/c1ccccc1 [cis-Stilbene] | > 90 µM
O=C(/C=C/C=C/c1ccc2c(c1)OCO2)N1CCCCC1 | > 90 µM

# input Can you look up the measured CC50 at 24 h of "Nc1ccc2ccccc2c1S(=O)(=O)O" for me?
# output > 90 µM

# input Can you look up the measured CC50 at 24 h of Cc1cn[nH]c1 [4-Methylpyrazole hydrochloride] for me?
# output > 50 µM

# input Can you look up the measured CC50 at 24 h of "CCC(=O)NCC[C@@H]1CCc2ccc3c(c21)CCO3" for me?
# output > 50 µM

# input Can you look up the measured CC50 at 24 h of C[N+](C)(C)CCOC(=O)CCC(=O)OCC[N+](C)(C)C [Succinylcholine chloride] for me?
# output > 50 µM
